# experimental_system: CFTR (Homo sapiens, UniProt P13569, DEL508-508)
# Construct: endogenous in cells; host or cells: primary human bronchial epithelial cells from CF subjects (F508del/MF-HBE), differentiated at air-liquid interface
# experiment_summary: HBE2 assay: Ussing chamber assay of CFTR-mediated short-circuit currents
# Assay type: cell-based
# condition_parameters: 3 μM; F508del/MF-HBE cells; with 44 nM potentiator; 18-24 hours; 20% human serum
measurement_kind: HBE2 Activity at 3 μM (%)

compound="Cc1cccc(C)c1-c1cc2nc(n1)NS(=O)(=O)c1cccc(c1)C(=O)N(Cc1cncc(N(C)C3CCC3)n1)[C@H](CCC(C)(C)C)CO2 [Compound 1319]" endpoint_result="+++ (+++ is >60+)"
compound="Cc1cccc(C)c1-c1cc2nc(n1)NS(=O)(=O)c1cccc(c1)C(=O)N(Cc1cncc(N(C)C3CCC3)n1)[C@H](CC(C)(C)C(F)(F)F)CO2 [Compound 1689]" endpoint_result="+++ (+++ is >60+)"
compound="CO[C@H]1C[C@H](CN(C)c2cncc(CN3C(=O)c4cccc(c4)S(=O)(=O)Nc4nc(cc(-c5c(C)cccc5C)n4)OC[C@H]3CC(C)(C)C)n2)C1 (stereo in doubt) [Compound 1632]" endpoint_result="+++ (+++ is >60+)"

====

# experimental_system: CFTR (Homo sapiens, UniProt P13569, DEL508-508)
# Construct: endogenous in cells; host or cells: primary human bronchial epithelial cells from CF subjects (F508del/MF-HBE), differentiated at air-liquid interface
# experiment_summary: HBE assay: Ussing chamber assay of CFTR-mediated short-circuit currents
# Assay type: cell-based
# condition_parameters: Table 13; read-out: HBE EC50
# Experimental: 1. Ussing Chamber Assay of CFTR-Mediated Short-Circuit Currents […] To isolate the CFTR-mediated short-circuit (ISC) current, F508del/MF-HBE grown on Costar® Snapwell™ cell culture inserts were mounted in an Ussing chamber and the transepithelial ISC was measured under voltage-clamp recording conditions (Vhold=0 mV) at 37° C. […] The CFTR-mediated ISC (μA/cm^2) for each condition was determined from the peak forskolin response to the steady-state current following inhibition. […]
measurement_kind: EC50

Worked cases, answers included:
mol=Cc1cccc(C)c1-c1cc2nc(n1)NS(=O)(=O)c1cccc(c1)C(=O)N(Cc1ncc(N3CCOC4(CC4)C3)cn1)[C@H](CC(C)(C)C)CO2 experimental_system="CFTR (Homo sapiens, UniProt P13569, DEL508-508)" endpoint_result="< 1000 nM"
mol=Cc1cc(OC(C)C)cnc1CN1C(=O)c2cccc(c2)S(=O)(=O)Nc2nc(cc(-c3c(C)cccc3C)n2)OC[C@H]1CC(C)(C)C experimental_system="CFTR (Homo sapiens, UniProt P13569, DEL508-508)" endpoint_result="< 1000 nM"
mol=Cc1cccc(C)c1-c1cc2nc(n1)NS(=O)(=O)c1cccc(c1)C(=O)N(Cc1ncc(C3CC(C)(C)C3)cn1)[C@H](CC(C)(C)C)CO2 experimental_system="CFTR (Homo sapiens, UniProt P13569, DEL508-508)" endpoint_result="< 1000 nM"
mol=Cc1cccc(C)c1-c1cc2nc(n1)NS(=O)(=O)c1cccc(n1)C(=O)N(Cc1cccc(NCC(C)(C)C)n1)[C@H](CC(C)(C)C)CO2 experimental_system="CFTR (Homo sapiens, UniProt P13569, DEL508-508)" endpoint_result="< 1000 nM"

# EC50 lookup, item `Cc1cccc(C)c1-c1cc2nc(n1)NS(=O)(=O)c1cccc(c1)C(=O)N(Cc1ncc(OC3CCC3)cc1Cl)[C@H](CC(C)(C)C)CO2`
< 1000 nM

# EC50 lookup, item `Cc1cccc(C)c1-c1cc2nc(n1)NS(=O)(=O)c1cccc(c1)C(=O)N(Cc1ncc(N3CC4(CCOCC4)C3)cn1)[C@H](CC(C)(C)C)CO2`
< 1000 nM

# EC50 lookup, item `Cc1cccc(C)c1-c1cc2nc(n1)NS(=O)(=O)c1cccc(c1)C(=O)N(Cc1ncc(N3CCC(C)(C)C3)cc1C(F)(F)F)[C@H](CC(C)(C)C)CO2`
< 1000 nM

# EC50 lookup, item `Cc1cccc(C)c1-c1cc2nc(n1)NS(=O)(=O)c1cccc(c1)C(=O)N(Cc1ncc(N3CCOC(C)(C)C3)cn1)[C@H](CC(C)(C)C)CO2`
< 1000 nM

# EC50 lookup, item `COc1ccc(F)c(CN2C(=O)c3cccc(c3)S(=O)(=O)Nc3nc(cc(-c4c(C)cccc4C)n3)OC[C@H]2CC(C)(C)C)n1`
< 1000 nM

# EC50 lookup, item `COc1cc(OC(C)C)cnc1CN1C(=O)c2cccc(c2)S(=O)(=O)Nc2nc(cc(-c3c(C)cccc3C)n2)OC[C@H]1CC(C)(C)C`
< 1000 nM

# EC50 lookup, item `Cc1cccc(C)c1-c1cc2nc(n1)NS(=O)(=O)c1cccc(c1)C(=O)N(Cc1ncc(N3CC4(C3)CC(C)(C)C4)cn1)[C@H](CC(C)(C)C)CO2`
< 1000 nM

# EC50 lookup, item `Cc1cccc(C)c1-c1cc2nc(n1)NS(=O)(=O)c1cccc(c1)C(=O)N(Cc1ncc(N3[C@H](C)CC[C@@H]3C)cn1)[C@H](CC(C)(C)C)CO2`
< 1000 nM

====

# experimental_system: CFTR (Homo sapiens, UniProt P13569, DEL508-508)
# Construct: endogenous in cells; host or cells: primary human bronchial epithelial cells from CF subjects (F508del/MF-HBE), differentiated at air-liquid interface
# experiment_summary: HBE assay: Ussing chamber assay of CFTR-mediated short-circuit currents
# Assay type: cell-based
# condition_parameters: Table 13; read-out: HBE Max Activity (%)
Examples of compounds with documented Emax follow.

compound="Cc1cccc(C)c1-c1cc2nc(n1)NS(=O)(=O)c1cccc(n1)C(=O)N(Cc1cccc(N3CCCC3C)n1)[C@H](CC(C)(C)C)CO2 (stereo partly drawn)" measurement_kind=Emax endpoint_result="> 60%"

# Emax lookup, item `Cc1cc(N2CCC(C)(C)C2)cnc1CN1C(=O)c2cccc(c2)S(=O)(=O)Nc2nc(cc(-c3c(C)cccc3C)n2)OC[C@H]1CC(C)(C)C`
> 60%

# Emax lookup, item `Cc1cccc(C)c1-c1cc2nc(n1)NS(=O)(=O)c1cccc(c1)C(=O)N(Cc1ncc(N3CCC(C)(C)C3)cc1C(F)(F)F)[C@H](CC(C)(C)C)CO2`
> 60%

====

# experimental_system: CFTR (Homo sapiens, UniProt P13569)
# Sequence (P13569 with tags, fused parts or gaps DEL508-508): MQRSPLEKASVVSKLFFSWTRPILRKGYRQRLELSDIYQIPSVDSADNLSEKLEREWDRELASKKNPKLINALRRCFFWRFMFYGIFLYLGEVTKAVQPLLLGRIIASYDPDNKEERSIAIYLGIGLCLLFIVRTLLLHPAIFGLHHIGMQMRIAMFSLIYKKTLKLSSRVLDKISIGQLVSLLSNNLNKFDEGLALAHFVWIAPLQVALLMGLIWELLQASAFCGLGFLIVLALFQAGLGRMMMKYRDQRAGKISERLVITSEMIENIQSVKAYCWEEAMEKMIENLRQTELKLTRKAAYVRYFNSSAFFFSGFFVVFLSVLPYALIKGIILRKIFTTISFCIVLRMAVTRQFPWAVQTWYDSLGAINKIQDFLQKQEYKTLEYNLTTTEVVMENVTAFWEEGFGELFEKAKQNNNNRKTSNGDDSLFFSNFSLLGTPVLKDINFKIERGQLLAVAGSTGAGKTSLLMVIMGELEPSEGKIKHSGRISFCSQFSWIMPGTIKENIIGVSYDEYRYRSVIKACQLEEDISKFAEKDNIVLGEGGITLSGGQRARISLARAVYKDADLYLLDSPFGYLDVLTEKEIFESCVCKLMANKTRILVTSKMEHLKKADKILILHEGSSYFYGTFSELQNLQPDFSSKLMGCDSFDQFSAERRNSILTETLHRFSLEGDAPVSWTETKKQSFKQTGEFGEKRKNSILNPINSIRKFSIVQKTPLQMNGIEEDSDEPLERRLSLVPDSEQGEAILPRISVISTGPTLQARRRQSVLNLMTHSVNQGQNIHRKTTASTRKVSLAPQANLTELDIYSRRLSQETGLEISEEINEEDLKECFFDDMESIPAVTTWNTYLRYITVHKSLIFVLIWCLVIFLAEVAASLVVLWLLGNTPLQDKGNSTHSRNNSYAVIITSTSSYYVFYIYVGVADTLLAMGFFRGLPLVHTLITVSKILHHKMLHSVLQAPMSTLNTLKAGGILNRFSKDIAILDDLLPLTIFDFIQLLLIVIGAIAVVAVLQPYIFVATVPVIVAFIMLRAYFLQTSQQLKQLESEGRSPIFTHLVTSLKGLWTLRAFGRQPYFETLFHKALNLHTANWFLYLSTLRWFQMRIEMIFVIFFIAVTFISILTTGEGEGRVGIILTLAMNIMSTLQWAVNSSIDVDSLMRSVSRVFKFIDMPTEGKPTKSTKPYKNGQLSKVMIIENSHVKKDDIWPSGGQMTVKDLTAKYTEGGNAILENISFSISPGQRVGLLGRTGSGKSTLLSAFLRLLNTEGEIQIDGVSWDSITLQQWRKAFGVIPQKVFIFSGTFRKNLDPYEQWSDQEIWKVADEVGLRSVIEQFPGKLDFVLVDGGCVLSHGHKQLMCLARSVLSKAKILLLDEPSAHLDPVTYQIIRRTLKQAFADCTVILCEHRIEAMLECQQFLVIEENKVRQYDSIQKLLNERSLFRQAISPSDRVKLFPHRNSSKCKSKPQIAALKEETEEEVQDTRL
# experiment_summary: Membrane potential dye, Enteroid Assay B
# Assay type: cell-based
# condition_parameters: Table 8; human enteroid cells, 18-24 hours; acute 10 μM forskolin and 300 nM ivacaftor; read-out: Ent. B EC50
pEC50: −log10 of the molar value.
measurement_kind: pEC50

Worked cases, answers included:
compound="CNC(=O)CCCN1C(=O)c2cccc(c2)S(=O)(=O)Nc2nc(cc(-c3c(C)cccc3C)n2)OC[C@H]1CC(C)C [Compound 406]" endpoint_result="5.52 to 6.00"
compound="CC(=O)N(C)CCN1C(=O)c2cccc(c2)S(=O)(=O)Nc2nc(cc(-c3c(C)cccc3C)n2)OC[C@H]1CC(C)C [Compound 405]" endpoint_result="> 6.00"
compound="COC(=O)N1CCn2ncc(CN3C(=O)c4cccc(c4)S(=O)(=O)Nc4nc(cc(-c5c(C)cccc5C)n4)OC[C@H]3CC(C)(C)C)c2C1 [Compound 403]" endpoint_result="> 6.00"
compound="Cc1cccc(C)c1-c1cc2nc(n1)NS(=O)(=O)c1cc(n(C)n1)C(=O)N(Cc1ncccn1)[C@H](CC(C)(C)C)CO2 [Compound 929]" endpoint_result="> 6.00"
compound="Cc1cccc(C)c1-c1cc2nc(n1)NS(=O)(=O)c1cccc(c1)C(=O)N(CCc1ccc(C(N)=O)cc1)[C@H](CC(C)(C)C)CO2 [Compound 396]" endpoint_result="> 6.00"

Let us move to another entry and its pEC50.
So what pEC50 did Cc1cccc(C)c1-c1cc2nc(n1)NS(=O)(=O)c1cccc(c1)C(=O)N(Cc1cccnc1)[C@H](CC(C)(C)C)CO2 [Compound 1086] get with CFTR (Homo sapiens, UniProt P13569)?
> 6.00

====

# experimental_system: CFTR (Homo sapiens, UniProt P13569)
# experiment_summary: Membrane potential dye, Enteroid Assay A
# Type: cell-based
# condition_parameters: Table 6; chloride transport as % of triple combination control (Enteroid Assay A)
measurement_kind: Ent. A Max Activity

molecule="CCC(CC)CN1C(=O)c2cccc(c2)S(=O)(=O)Nc2nc(cc(-c3c(C)cccc3C)n2)OC[C@H]1CC(C)C [Compound 990]" experimental_system="CFTR (Homo sapiens, UniProt P13569)" endpoint_result="+++ (+++ is >60%)"
molecule="Cc1cccc(C)c1-c1cc2nc(n1)NS(=O)(=O)c1cccc(c1)C(=O)N(C)CC(CN1C3CCC[C@H]1CC3)O2 (stereo partly shown) [Compound 1015]" experimental_system="CFTR (Homo sapiens, UniProt P13569)" endpoint_result="+ (+ is <30%)"
molecule="Cc1cccc(C)c1-c1cc2nc(n1)NS(=O)(=O)c1cccc(c1)C(=O)N(CCC1CCOCC1)CC(c1ccc(C(C)(C)C)cc1)O2 (stereo not shown) [Compound 342]" experimental_system="CFTR (Homo sapiens, UniProt P13569)" endpoint_result="+++ (+++ is >60%)"
molecule="Cc1cccc(C)c1-c1cc2nc(n1)NS(=O)(=O)c1cccc(c1)C(=O)N(C)CC(c1ccc(C(C)(C)C)cc1)O2 (racemic) [Compound 10]" experimental_system="CFTR (Homo sapiens, UniProt P13569)" endpoint_result="+++ (+++ is >60%)"
molecule="COC(=O)CCCN1C(=O)c2cccc(c2)S(=O)(=O)Nc2nc(cc(-c3c(C)cccc3C)n2)OC[C@H]1CC(C)C [Compound 367]" experimental_system="CFTR (Homo sapiens, UniProt P13569)" endpoint_result="+++ (+++ is >60%)"

# Ent. A Max Activity lookup, item COc1ccc(CN2C(=O)c3cccc(c3)S(=O)(=O)Nc3nc(cc(-c4c(C)cccc4C)n3)OC[C@H]2CC(C)C)cc1 [Compound 347]
+++ (+++ is >60%)

# Ent. A Max Activity lookup, item Cc1cccc(C)c1-c1cc2nc(n1)NS(=O)(=O)c1cccc(c1)C(=O)N(Cc1ccc(N3CCN(C)CC3)cc1)[C@H](CC(C)C)CO2 [Compound 856]
+++ (+++ is >60%)
